Target: UniProt Q14289
Sequence (Q14289 whole entry, looked up): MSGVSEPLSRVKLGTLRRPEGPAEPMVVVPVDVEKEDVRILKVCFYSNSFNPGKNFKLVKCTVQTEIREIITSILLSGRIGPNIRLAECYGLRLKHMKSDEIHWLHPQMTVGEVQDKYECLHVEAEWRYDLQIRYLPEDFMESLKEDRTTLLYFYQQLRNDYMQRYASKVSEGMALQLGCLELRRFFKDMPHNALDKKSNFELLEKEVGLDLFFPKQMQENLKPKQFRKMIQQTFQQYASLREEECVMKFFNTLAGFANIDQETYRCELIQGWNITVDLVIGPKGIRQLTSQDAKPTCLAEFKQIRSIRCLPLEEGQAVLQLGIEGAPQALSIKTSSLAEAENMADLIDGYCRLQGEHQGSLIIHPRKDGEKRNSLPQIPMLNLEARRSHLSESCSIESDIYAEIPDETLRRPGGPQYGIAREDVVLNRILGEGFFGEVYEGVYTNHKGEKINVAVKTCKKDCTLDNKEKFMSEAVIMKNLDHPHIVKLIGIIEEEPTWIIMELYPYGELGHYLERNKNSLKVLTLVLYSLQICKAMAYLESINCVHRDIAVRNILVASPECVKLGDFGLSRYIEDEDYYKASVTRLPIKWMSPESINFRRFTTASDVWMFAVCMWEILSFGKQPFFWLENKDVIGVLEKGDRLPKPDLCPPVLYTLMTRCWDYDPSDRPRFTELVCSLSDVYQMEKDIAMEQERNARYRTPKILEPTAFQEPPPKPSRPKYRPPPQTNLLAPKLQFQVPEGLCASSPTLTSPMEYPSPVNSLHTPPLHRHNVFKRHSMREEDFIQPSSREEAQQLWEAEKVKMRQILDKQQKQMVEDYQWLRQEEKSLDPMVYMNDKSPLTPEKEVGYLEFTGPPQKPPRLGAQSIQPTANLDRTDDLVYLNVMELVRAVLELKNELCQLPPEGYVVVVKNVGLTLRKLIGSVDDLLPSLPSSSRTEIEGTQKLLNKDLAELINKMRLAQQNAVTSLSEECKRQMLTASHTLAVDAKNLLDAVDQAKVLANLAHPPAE
Experiment: KINOMEscan competition binding
Settings: compound 10.0 µM
Entries and their kinase still bound, per cent of control
Property: kinase still bound, per cent of control (%)

- Smiles Representation: "Cc1ccc(NC(=O)c2cccc(C(C)(C)C#N)c2)cc1Nc1ccc2ncn(C)c(=O)c2c1"
  Property: "kinase still bound, per cent of control"
  Measure Unit: "%"
  Numeric Readout: 100
- Smiles Representation: "COc1cc(N2CCN(C)CC2)ccc1Nc1nc(N)c(C(=O)c2c(Cl)cccc2Cl)s1"
  Property: "kinase still bound, per cent of control"
  Measure Unit: "%"
  Numeric Readout: 42
- Smiles Representation: "Cc1ccc2nc(NCCN)c3ncc(C)n3c2c1"
  Property: "kinase still bound, per cent of control"
  Measure Unit: "%"
  Numeric Readout: 100
- Smiles Representation: "O=C(NC1CC1)c1cccc(-c2ccc3c(NC(=O)C4CC4)n[nH]c3c2)c1"
  Property: "kinase still bound, per cent of control"
  Measure Unit: "%"
  Numeric Readout: 100
- Smiles Representation: "Cc1ccc(C(=O)Nc2cccc(C(F)(F)F)c2)cc1Nc1cncc(C(N)=O)c1"
  Property: "kinase still bound, per cent of control"
  Measure Unit: "%"
  Numeric Readout: 100

* * *

Entries and their kinase still bound, per cent of control
Target: EPHB4 (human)
Experiment: KINOMEscan competition binding
Conditions: compound 10.0 µM
Property: kinase still bound, per cent of control

- Smiles Representation: "CCCS(=O)(=O)Nc1ccc(F)c(C(=O)c2c[nH]c3ncc(-c4ccc(Cl)cc4)cc23)c1F"
  Property: "kinase still bound, per cent of control"
  Result: "100%"
- Smiles Representation: "Nc1ccc(-c2ccc3ncc4ccc(=O)n(-c5cccc(C(F)(F)F)c5)c4c3c2)cn1"
  Property: "kinase still bound, per cent of control"
  Result: "100%"
- Smiles Representation: "COc1cc(N2CCN(C)CC2)ccc1Nc1nc(N)c(C(=O)c2c(Cl)cccc2Cl)s1"
  Property: "kinase still bound, per cent of control"
  Result: "97%"
- Smiles Representation: "CCC(=O)N1CCN(c2ccc(-n3c(=O)ccc4cnc5ccc(-c6cnc7ccccc7c6)cc5c43)cc2C(F)(F)F)CC1"
  Property: "kinase still bound, per cent of control"
  Result: "85%"

* * *

Target: NUAK2 (human) (UniProt Q9H093)
Sequence (Q9H093 whole entry, looked up): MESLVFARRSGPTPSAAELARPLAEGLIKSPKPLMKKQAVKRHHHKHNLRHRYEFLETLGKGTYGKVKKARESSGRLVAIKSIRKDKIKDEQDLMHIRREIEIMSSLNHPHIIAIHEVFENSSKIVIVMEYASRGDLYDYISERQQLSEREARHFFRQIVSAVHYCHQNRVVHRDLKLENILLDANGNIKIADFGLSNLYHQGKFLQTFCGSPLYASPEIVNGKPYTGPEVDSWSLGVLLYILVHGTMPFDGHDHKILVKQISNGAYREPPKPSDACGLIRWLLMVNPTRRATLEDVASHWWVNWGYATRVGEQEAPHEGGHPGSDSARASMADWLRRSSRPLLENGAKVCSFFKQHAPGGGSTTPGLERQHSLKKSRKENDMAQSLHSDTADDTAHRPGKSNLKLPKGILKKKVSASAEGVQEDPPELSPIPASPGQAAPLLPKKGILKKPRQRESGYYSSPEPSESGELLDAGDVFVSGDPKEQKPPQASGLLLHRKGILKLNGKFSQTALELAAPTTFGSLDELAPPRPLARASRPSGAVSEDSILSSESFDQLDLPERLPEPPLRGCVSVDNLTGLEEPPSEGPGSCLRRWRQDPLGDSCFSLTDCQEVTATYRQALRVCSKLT
Assay: KINOMEscan competition binding
Details: compound 10.0 µM

- Smiles Representation: "C=CC(=O)Nc1cccc(Nc2nc(N[C@H]3CC[C@H](N(C)C)CC3)nc3c2ncn3C(C)C)c1"
  Measure Unit: "%"
  kinase still bound, per cent of control: 45
- Smiles Representation: "O=C(NOC[C@H](O)CO)c1ccc(F)c(F)c1Nc1ccc(I)cc1F"
  Measure Unit: "%"
  kinase still bound, per cent of control: 99
- Smiles Representation: "O=C(O)c1ccc(Nc2ncc3c(n2)-c2ccc(Cl)cc2C(c2c(F)cccc2F)=NC3)cc1"
  Measure Unit: "%"
  kinase still bound, per cent of control: 85
- Smiles Representation: "CN(C)C/C=C/C(=O)Nc1cccc(Nc2ncc3c(n2)N(C)c2ccccc2C(=O)N3C)c1"
  Measure Unit: "%"
  kinase still bound, per cent of control: 2.6
- Smiles Representation: "Cc1ccc(C(=O)Nc2cccc(C(F)(F)F)c2)cc1Nc1cncc(C(N)=O)c1"
  Measure Unit: "%"
  kinase still bound, per cent of control: 100
- Smiles Representation: "O=C1Nc2ccc(I)cc2/C1=C/c1cc(Br)c(O)c(Br)c1"
  Measure Unit: "%"
  kinase still bound, per cent of control: 75
- Smiles Representation: "COc1cc(N2CCN(C)CC2)ccc1Nc1nc(N)c(C(=O)c2c(Cl)cccc2Cl)s1"
  Measure Unit: "%"
  kinase still bound, per cent of control: 60
- Smiles Representation: "CCCS(=O)(=O)Nc1ccc(F)c(C(=O)c2c[nH]c3ncc(-c4ccc(Cl)cc4)cc23)c1F"
  Measure Unit: "%"
  kinase still bound, per cent of control: 98
- Smiles Representation: "Cn1c(=O)n(-c2ccc(C(C)(C)C#N)cc2)c2c3cc(-c4cnc5ccccc5c4)ccc3ncc21"
  Measure Unit: "%"
  kinase still bound, per cent of control: 100

* * *

Entries and their kinase still bound, per cent of control
Molecular target: TEC (human) (UniProt P42680)
Sequence (P42680 whole entry, looked up): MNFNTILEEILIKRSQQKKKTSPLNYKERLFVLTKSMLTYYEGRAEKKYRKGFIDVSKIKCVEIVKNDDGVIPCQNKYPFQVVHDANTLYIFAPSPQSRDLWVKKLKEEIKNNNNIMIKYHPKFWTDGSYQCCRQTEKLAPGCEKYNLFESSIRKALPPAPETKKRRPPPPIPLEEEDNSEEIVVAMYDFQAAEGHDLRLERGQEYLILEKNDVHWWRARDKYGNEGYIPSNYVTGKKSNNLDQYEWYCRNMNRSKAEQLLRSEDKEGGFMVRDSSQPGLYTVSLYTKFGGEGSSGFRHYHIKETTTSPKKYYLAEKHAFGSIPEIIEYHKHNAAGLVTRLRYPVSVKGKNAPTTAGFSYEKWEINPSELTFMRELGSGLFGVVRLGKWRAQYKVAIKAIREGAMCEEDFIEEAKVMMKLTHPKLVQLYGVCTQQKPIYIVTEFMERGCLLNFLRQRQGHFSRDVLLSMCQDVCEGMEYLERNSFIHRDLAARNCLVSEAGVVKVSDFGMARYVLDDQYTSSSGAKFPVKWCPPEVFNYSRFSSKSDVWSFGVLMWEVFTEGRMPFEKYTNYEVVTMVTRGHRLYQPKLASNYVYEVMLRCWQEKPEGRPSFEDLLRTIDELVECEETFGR
Test: KINOMEscan competition binding
Details: compound 10.0 µM

- Smiles Representation: "Cc1ccc(NC(=O)c2cccc(C(C)(C)C#N)c2)cc1Nc1ccc2ncn(C)c(=O)c2c1"
  kinase still bound, per cent of control (%): 100
- Smiles Representation: "Cc1ccc2nc(NCCN)c3ncc(C)n3c2c1"
  kinase still bound, per cent of control (%): 100
- Smiles Representation: "C[C@@H](Oc1cc(-n2cnc3ccc(CN4CCN(C)CC4)cc32)sc1C(N)=O)c1ccccc1C(F)(F)F"
  kinase still bound, per cent of control (%): 91
- Smiles Representation: "C=CC(=O)Nc1cc(NC(=O)c2ccc(C)c(NC(=O)c3ccno3)c2)cc(C(F)(F)F)c1"
  kinase still bound, per cent of control (%): 100
- Smiles Representation: "Cn1c(=O)n(-c2ccc(C(C)(C)C#N)cc2)c2c3cc(-c4cnc5ccccc5c4)ccc3ncc21"
  kinase still bound, per cent of control (%): 100
- Smiles Representation: "Cc1cc([C@@H](C)Nc2ccccc2C(=O)O)c2nc(N3CCOCC3)cc(=O)n2c1"
  kinase still bound, per cent of control (%): 91
- Smiles Representation: "Cc1ccc(C(=O)Nc2cccc(C(F)(F)F)c2)cc1Nc1cncc(C(N)=O)c1"
  kinase still bound, per cent of control (%): 100
- Smiles Representation: "O=C(NC1CC1)c1cccc(-c2ccc3c(NC(=O)C4CC4)n[nH]c3c2)c1"
  kinase still bound, per cent of control (%): 95
- Smiles Representation: "CCCS(=O)(=O)Nc1ccc(F)c(C(=O)c2c[nH]c3ncc(-c4ccc(Cl)cc4)cc23)c1F"
  kinase still bound, per cent of control (%): 100
- Smiles Representation: "O=C(NOC[C@H](O)CO)c1ccc(F)c(F)c1Nc1ccc(I)cc1F"
  kinase still bound, per cent of control (%): 100
- Smiles Representation: "C=CC(=O)Nc1cccc(Oc2nc(Nc3ccc(N4CCN(C)CC4)cc3OC)ncc2Cl)c1"
  kinase still bound, per cent of control (%): 6.6

* * *

Entries and their kinase still bound, per cent of control
Test system: KIT (human), P10721 [V559D/T670I]
Sequence (P10721 whole entry V559D/T670I, looked up): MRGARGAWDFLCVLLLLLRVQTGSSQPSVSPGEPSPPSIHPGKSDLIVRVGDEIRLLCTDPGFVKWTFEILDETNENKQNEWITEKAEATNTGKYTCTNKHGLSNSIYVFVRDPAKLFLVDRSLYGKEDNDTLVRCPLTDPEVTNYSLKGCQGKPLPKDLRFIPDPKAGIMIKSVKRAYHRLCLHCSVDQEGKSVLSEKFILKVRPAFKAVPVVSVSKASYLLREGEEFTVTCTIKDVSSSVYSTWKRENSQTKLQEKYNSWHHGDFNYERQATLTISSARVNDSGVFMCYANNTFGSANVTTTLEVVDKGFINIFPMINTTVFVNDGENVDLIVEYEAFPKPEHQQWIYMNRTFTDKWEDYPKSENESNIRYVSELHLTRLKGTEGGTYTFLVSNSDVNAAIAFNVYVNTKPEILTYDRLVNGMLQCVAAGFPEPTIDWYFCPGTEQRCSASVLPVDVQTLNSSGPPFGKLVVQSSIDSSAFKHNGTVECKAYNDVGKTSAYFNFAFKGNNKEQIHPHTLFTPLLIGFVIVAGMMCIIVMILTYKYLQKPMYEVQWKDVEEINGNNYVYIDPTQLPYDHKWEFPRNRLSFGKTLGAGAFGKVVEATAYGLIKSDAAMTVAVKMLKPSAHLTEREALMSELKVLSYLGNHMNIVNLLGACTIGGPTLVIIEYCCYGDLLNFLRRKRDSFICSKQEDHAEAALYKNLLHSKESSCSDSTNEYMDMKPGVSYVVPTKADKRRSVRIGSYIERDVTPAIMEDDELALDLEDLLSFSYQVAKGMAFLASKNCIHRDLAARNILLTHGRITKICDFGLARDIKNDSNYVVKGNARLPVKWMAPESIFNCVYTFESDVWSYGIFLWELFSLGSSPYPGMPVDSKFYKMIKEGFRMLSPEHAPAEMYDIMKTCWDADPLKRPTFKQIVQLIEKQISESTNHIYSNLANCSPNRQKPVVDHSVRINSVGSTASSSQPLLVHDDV
Assay: KINOMEscan competition binding
Conditions: compound 10.0 µM

- Smiles Representation: "COc1cc(N2CCC(C(N)=O)CC2)ccc1Nc1nc(N)c(Cl)c(Nc2ccccc2S(=O)(=O)C(C)C)n1"
  kinase still bound, per cent of control: "100%"
- Smiles Representation: "COc1ccc(N(C(=O)Oc2c(C)cccc2C)c2ccnc(Nc3ccc(N4CCN(C)CC4)cc3)n2)c(OC)c1"
  kinase still bound, per cent of control: "48%"
- Smiles Representation: "COc1cc2ncnc(-n3nc(-c4ccccn4)nc3N)c2cc1OC"
  kinase still bound, per cent of control: "47%"
- Smiles Representation: "CCOc1cc(N2CCC(O)CC2)ccc1Nc1ncc2c(n1)N(C)c1ccccc1C(=O)N2C"
  kinase still bound, per cent of control: "100%"
- Smiles Representation: "Cc1ccc(NC(=O)c2cccc(C(C)(C)C#N)c2)cc1Nc1ccc2ncn(C)c(=O)c2c1"
  kinase still bound, per cent of control: "0.35%"

* * *

Biological target: MTOR (human) (UniProt P42345)
Assay: KINOMEscan competition binding
Details: compound 10.0 µM

- Smiles Representation: "O=C(NOC[C@H](O)CO)c1ccc(F)c(F)c1Nc1ccc(I)cc1F"
  kinase still bound, per cent of control [%]: 100
- Smiles Representation: "O=C(NC1CC1)c1cccc(-c2ccc3c(NC(=O)C4CC4)n[nH]c3c2)c1"
  kinase still bound, per cent of control [%]: 100
- Smiles Representation: "O=C1Nc2ccc(I)cc2/C1=C/c1cc(Br)c(O)c(Br)c1"
  kinase still bound, per cent of control [%]: 95
- Smiles Representation: "Cc1cc([C@@H](C)Nc2ccccc2C(=O)O)c2nc(N3CCOCC3)cc(=O)n2c1"
  kinase still bound, per cent of control [%]: 11
- Smiles Representation: "C=CC(=O)Nc1cccc(Nc2nc(N[C@H]3CC[C@H](N(C)C)CC3)nc3c2ncn3C(C)C)c1"
  kinase still bound, per cent of control [%]: 100
- Smiles Representation: "Cc1ccc2nc(NCCN)c3ncc(C)n3c2c1"
  kinase still bound, per cent of control [%]: 87
- Smiles Representation: "CCN1CCN(Cc2ccc(Nc3ncc4c(n3)N(C)c3ccccc3C(=O)N4C)cc2C(F)(F)F)CC1"
  kinase still bound, per cent of control [%]: 39
- Smiles Representation: "CCOc1cc2ncc(C#N)c(Nc3ccc(OCc4ccccn4)c(Cl)c3)c2cc1NC(=O)/C=C/CN(C)C"
  kinase still bound, per cent of control [%]: 100
- Smiles Representation: "C=CC(=O)Nc1cc(NC(=O)c2ccc(C)c(NC(=O)c3ccno3)c2)cc(C(F)(F)F)c1"
  kinase still bound, per cent of control [%]: 97
- Smiles Representation: "CCCS(=O)(=O)Nc1ccc(F)c(C(=O)c2c[nH]c3ncc(-c4ccc(Cl)cc4)cc23)c1F"
  kinase still bound, per cent of control [%]: 100
- Smiles Representation: "O=C(O)c1ccc(Nc2ncc3c(n2)-c2ccc(Cl)cc2C(c2c(F)cccc2F)=NC3)cc1"
  kinase still bound, per cent of control [%]: 75
- Smiles Representation: "N#Cc1c(NC(=O)c2cccc3ccccc23)sc2c1CCCC2"
  kinase still bound, per cent of control [%]: 100
- Smiles Representation: "COc1cc(N2CCN(C)CC2)ccc1Nc1nc(N)c(C(=O)c2c(Cl)cccc2Cl)s1"
  kinase still bound, per cent of control [%]: 100
- Smiles Representation: "CN(C)C/C=C/C(=O)Nc1cccc(Nc2ncc3c(n2)N(C)c2ccccc2C(=O)N3C)c1"
  kinase still bound, per cent of control [%]: 74
- Smiles Representation: "C[C@@H](Oc1cc(-n2cnc3ccc(CN4CCN(C)CC4)cc32)sc1C(N)=O)c1ccccc1C(F)(F)F"
  kinase still bound, per cent of control [%]: 55
- Smiles Representation: "Cc1ccc(NC(=O)c2cccc(C(C)(C)C#N)c2)cc1Nc1ccc2ncn(C)c(=O)c2c1"
  kinase still bound, per cent of control [%]: 100

The values you see were collected from the kinase profiling compilation of Christmann-Franck et al. (2016).
